Sequence of the target: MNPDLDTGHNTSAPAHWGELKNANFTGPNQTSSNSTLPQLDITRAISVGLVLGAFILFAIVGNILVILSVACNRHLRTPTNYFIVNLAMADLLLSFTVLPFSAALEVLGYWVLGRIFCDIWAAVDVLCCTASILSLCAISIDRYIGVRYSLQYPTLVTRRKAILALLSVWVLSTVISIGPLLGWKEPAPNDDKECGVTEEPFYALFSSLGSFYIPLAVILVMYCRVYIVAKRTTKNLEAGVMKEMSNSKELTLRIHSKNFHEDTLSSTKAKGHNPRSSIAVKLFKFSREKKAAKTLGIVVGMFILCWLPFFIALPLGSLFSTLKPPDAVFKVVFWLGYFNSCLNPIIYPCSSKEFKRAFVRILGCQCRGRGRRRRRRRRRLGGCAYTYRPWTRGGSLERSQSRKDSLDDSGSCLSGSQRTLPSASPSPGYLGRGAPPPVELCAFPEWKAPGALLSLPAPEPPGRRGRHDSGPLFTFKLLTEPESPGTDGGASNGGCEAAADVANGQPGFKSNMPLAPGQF
Record set: Ki | the protein given by its sequence | literature, multiple sources.
property.label: Ki (µM)

Example results:
COc1ccccc1N1CCN(CCn2c(C)nc3c(sc4ccc(NC(=O)c5ccccc5)cc43)c2=O)CC1 | 0.0389
COc1ccc(Cl)cc1N1CCN(CCCNc2nccc(C(N)=O)n2)CC1 | 0.0126
CC(=O)c1c(-c2ccccc2)nn(C)c(=O)c1NCCN1CCN(c2ccccc2F)CC1 | 0.00377
CO/C(O)=C1\C(C)=NC(C)=C(C(=O)NCCCN2CCC(c3ccccc3)CC2)C1c1ccc([N+](=O)[O-])cc1 (centres undefined) | 0.0135
Cc1nc2c3ccccc3nc-2c(O)n1CCN1CCN(c2ccc(C(C)(C)C)cc2)CC1 | 2.04

a = COc1ccc(CCCN2CCC(CCC(=O)c3cc(Cl)c(N)c4c3OCCO4)CC2)cc1OC
b = O=c1[nH]c2c([nH]c3ccccc32)c(=O)n1CCN1CCN(c2ccccc2O)CC1
input: Please compare: a and b . Report which one has the smaller Ki value. Kindly give the label for the entry you pick.
output: b
(b: 0.0117 µM, a: 0.501 µM)

a = CC(C)Oc1ccccc1N1CCN(Cc2cc(CN3CCCCC3=O)nn2C)CC1
b = Clc1cccc(Cl)c1OCCNCCOc1ccccc1OCc1ccccc1
input: Could you please tell me which of these two has the higher Ki: a or b ? Kindly give the label for the entry you pick.
output: a
(a: 2.77 µM, b: 0.0794 µM)

----------
Record set: Ki | UniProt P35368 | literature, multiple sources.
Target: UniProt P35368
Sequence (P35368 whole entry): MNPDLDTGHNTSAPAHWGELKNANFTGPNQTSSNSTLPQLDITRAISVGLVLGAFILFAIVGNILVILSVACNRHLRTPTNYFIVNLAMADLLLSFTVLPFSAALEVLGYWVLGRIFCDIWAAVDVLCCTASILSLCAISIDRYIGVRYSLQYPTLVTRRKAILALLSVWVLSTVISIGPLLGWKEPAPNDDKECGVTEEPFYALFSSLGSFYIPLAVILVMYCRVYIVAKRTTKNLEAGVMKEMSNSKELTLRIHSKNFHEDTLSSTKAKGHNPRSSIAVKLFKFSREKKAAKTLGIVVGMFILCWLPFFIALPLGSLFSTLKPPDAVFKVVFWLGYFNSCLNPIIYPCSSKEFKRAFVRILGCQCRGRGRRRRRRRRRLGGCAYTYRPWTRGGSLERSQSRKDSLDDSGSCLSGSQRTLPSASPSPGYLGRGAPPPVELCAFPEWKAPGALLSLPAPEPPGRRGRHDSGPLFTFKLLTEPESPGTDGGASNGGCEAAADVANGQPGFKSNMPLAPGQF
property.label: Ki (µM)

Cc1c[nH]c(=O)n(CCCN2CCN(c3ccc(F)cc3OCC(F)(F)F)CC2)c1=O | 0.0794
COc1ccccc1N1CCN(CCn2c(=O)[nH]c3c(sc4ccc(NC(=O)CCC(=O)NCc5ccccc5)cc43)c2=O)CC1 | 0.00269
COc1ccccc1N1CCN(CCCn2cnc3c4ccccc4nc-3c2O)CC1 | 0.162
COc1ccccc1N1CCN(CCn2c(=O)[nH]c3c(sc4ccc(NC(=O)CCCc5ccccc5)cc43)c2=O)CC1 | 0.0339

I = c1ccc(OCCNC[C@@H]2CO[C@H](C(c3ccccc3)c3ccccc3)O2)cc1 (relative stereo)
II = COCC1=C(C(=O)OC)[C@H](c2ccc(F)c(F)c2)N(C(=O)N[C@@H]2CC[C@H](N3CCC(c4ccccn4)CC3)C2)C(=O)N1
input: Please compare: I and II . Report which one has the smaller Ki value. Kindly give the label for the entry you pick.
output: I
(I: 0.102 µM, II: 1.3 µM)

a = COc1ccccc1OCCNCC1CCOC(c2ccccc2)(c2ccccc2)O1 (stereo not drawn)
b = COc1ccccc1N1CCN(CC2OCC(c3ccccc3)(c3ccccc3)O2)CC1 (stereo not drawn)
input: Could you please tell me which of these two has the higher Ki: a or b ? Kindly give the label for the entry you pick.
output: a

1 = COc1cc2nc(N3CCC[C@H](NC(=O)[C@@H]4COc5ccccc5O4)C3)nc(N)c2cc1OC
2 = COc1ccccc1N1CCN(CCCn2c(C)nc3c4ccccc4nc-3c2O)CC1
3 = c1ccc2c(c1)C[C@]1(c3c[nH]cn3)C[C@H]21 (stereo in doubt; (-)-1)
input: // smallest Ki at index 0, largest at the end Show the ranking through the labels, in the order asked for.
output: 3, 1, 2
(3: 0.00105 µM, 1: 0.00741 µM, 2: 0.0269 µM)

I = COc1cc2nc(N3CCC[C@H](NC(=O)[C@H]4COc5ccccc5O4)C3)nc(N)c2cc1OC
II = COc1ccccc1N1CCN(CC(O)COc2cccc3ccccc23)CC1 (stereo not drawn)
input: Please compare: I and II . Report which one has the smaller Ki value. Kindly give the label for the entry you pick.
output: II

P = CC1(C)C2c3ccccc3C[C@@]21c1c[nH]cn1 (single isomer, unassigned)
Q = COCC1=C(C(=O)OC)[C@H](c2ccc(F)c(F)c2)N(C(=O)N[C@H]2CC[C@H](N3CCC(c4ccccc4C#N)CC3)C2)C(=O)N1
input: Could you please tell me which of these two has the higher Ki: P or Q ? Kindly give the label for the entry you pick.
output: P
(P: 0.178 µM, Q: 0.036 µM)

----------
Target sequence: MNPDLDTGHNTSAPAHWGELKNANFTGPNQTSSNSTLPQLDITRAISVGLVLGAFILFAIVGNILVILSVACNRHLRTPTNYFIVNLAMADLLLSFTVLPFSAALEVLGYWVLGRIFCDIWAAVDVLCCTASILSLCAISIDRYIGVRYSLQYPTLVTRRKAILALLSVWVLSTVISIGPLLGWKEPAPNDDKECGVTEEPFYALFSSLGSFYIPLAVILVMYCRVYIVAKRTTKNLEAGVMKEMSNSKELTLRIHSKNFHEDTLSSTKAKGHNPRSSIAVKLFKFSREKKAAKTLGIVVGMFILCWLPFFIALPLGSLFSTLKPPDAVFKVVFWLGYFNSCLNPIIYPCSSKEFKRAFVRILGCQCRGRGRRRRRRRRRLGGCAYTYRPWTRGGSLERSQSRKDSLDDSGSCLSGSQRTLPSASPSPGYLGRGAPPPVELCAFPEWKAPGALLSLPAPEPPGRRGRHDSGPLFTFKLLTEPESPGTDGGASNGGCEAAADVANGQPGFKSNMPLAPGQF
pKi: −log10 of the molar value.
Record set: pKi | the protein given by its sequence | literature, multiple sources.
property.label: pKi

A = COc1ccccc1OCCNCC[C@@H]1CO[C@H](C(c2ccccc2)c2ccccc2)O1 (relative stereo)
B = CC(C)Oc1ccccc1N1CCN(CCCNC(=O)c2ccc3c(c2)C(=O)N(c2ccc(N(C)C)cc2)C3=O)CC1
C = COc1ccccc1N1C(=O)c2ccc(C(=O)NCC(O)CN3CCN(c4ccccc4OC(C)C)CC3)cc2C1=O (centres undefined)
D = O=S(=O)(N[C@H]1CC[C@@H](N2CCN(c3ccccc3OCC3CC3)CC2)CC1)c1cc(Cl)ccc1F
E = COc1cccc(-c2ccccc2)c1OCCNC[C@@H]1COc2ccccc2O1
input: Ranking criterion: pKi, increasing numeric value. Items: as listed above. Show the ranking through the labels, in the order asked for.
output: C, D, B, E, A

A = COc1ccccc1OCCNCC(CO)OC(c1ccccc1)c1ccccc1 (centres undefined)
B = COC(=O)[C@@H]1CCCN1Cc1ccc(CN2CCN(c3ccccc3OC)CC2)s1
C = COc1ccccc1N1CCN(Cc2ccc(C=O)s2)CC1
input: List items by pKi in falling order. Show the ranking through the labels, in the order asked for.
output: A, B, C

a = COc1ccc(Cl)cc1S(=O)(=O)N[C@H]1CC[C@@H](N2CCN(c3ccccc3OCC3CC3)CC2)CC1
b = COc1ccccc1N1CCN(CCNc2c(C(C)=O)c(-c3ccccc3)nn(C)c2=O)CC1
input: Please compare: a and b . Report which one has the smaller pKi value. Kindly give the label for the entry you pick.
output: a
